molecular target: T1, Biotinylated ADDL preparations (bADDLs) (N-terminal biotin); test: BIACORE, bADDL as antigen; column IgG1#1
T1 construct: Oligomer, number of copies not fixed; also called biotinylated ADDL antigen; high molecular weight 10% bADDL
measured_property: Kd (nM)
One number for each entry, in nM.

binder: 20C2-1A, affinity matured humanized 20C2, IgG1 humanized A version (antibody, V domains shown, also called SJ-p2-60) VH: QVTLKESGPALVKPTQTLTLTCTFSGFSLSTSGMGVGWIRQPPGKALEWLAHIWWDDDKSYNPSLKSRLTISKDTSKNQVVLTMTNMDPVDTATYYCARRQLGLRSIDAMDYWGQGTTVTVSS VL: DVVMTQSPLSLPVTPGEPASISCRSSQSILHSNGNTYLEWYLQKPGQSPQLLIYKVSNRFSGVPDRFSGSGSGTDFTLKISRVEAEDVGVYYCFQASRVPLTFGQGTKLEIKR
Kd / nM: 0.075

Lab note: next binder to report on.
*Q* Name the recorded Kd of the binder listed here: 20C2-3A, affinity matured humanized 20C2, IgG1 humanized A version (antibody, V domains shown, also called SJ-p3-16) VH: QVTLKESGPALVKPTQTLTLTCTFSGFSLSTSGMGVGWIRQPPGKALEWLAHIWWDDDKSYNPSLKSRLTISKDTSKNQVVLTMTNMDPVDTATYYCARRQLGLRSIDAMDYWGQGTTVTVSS VL: DVVMTQSPLSLPVTPGEPASISCRSSQSILHSNGNTYLEWYLQKPGQSPQLLIYKVSNRFSGVPDRFSGSGSGTDFTLKISRVEAEDVGVYYCFQGSFIPGTFGQGTKLEIKR
*A* 3.7
